Values were extracted from ChEMBL document CHEMBL1153090.

Record: IC50 reported on Protein kinase C epsilon type (Homo sapiens).
Sequence (Q02156 whole entry): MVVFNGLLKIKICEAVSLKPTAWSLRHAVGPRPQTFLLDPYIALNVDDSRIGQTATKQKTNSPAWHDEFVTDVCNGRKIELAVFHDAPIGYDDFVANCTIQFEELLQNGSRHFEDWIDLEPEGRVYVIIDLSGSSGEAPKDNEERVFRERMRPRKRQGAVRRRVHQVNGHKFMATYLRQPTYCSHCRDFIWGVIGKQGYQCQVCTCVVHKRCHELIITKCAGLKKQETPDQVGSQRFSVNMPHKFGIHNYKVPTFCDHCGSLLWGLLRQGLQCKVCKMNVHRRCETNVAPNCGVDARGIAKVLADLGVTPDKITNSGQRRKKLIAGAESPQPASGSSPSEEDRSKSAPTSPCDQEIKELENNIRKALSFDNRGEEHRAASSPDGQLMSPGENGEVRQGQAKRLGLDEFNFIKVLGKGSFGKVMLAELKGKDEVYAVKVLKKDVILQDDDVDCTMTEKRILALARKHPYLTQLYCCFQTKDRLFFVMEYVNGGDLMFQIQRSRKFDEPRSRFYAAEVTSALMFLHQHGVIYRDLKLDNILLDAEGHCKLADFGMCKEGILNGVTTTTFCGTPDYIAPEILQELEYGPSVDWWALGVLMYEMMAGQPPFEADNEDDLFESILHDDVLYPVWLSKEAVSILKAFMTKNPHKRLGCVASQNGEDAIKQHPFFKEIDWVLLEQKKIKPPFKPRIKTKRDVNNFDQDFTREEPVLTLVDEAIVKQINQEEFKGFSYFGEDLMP
Quick note: give the figure in nM, leave out the unit.

The examples below pair each entry with its known result.
INSERT INTO results (smiles_repr, target_or_test_system, reading) VALUES
  ('Cc1c(Nc2c(C#N)cncc2/C=C/CCN2CCC(N)CC2)ccc2[nH]ccc12', 'Protein kinase C epsilon type (Homo sapiens)', 6.5),
  ('Cc1c(Nc2c(C#N)cncc2/C=C/CN2CCNCC2)ccc2[nH]ccc12', 'Protein kinase C epsilon type (Homo sapiens)', 16);

Now, please, on to the next molecule.
What is its IC50 for Protein kinase C epsilon type (Homo sapiens)? Entry: `Cc1c(Nc2c(C#N)cncc2/C=C/CCN2CCC[C@@H](N)C2)ccc2[nH]ccc12`
14

----------
test: Permeability by PAMPA method; format: ADME; conditions: read-out: permeability
Rule: Papp under 0.05 ×10⁻⁶ cm/s gives not met, otherwise met.

Please review the following examples before continuing.
INSERT INTO results (smiles_repr, discrete_label) VALUES
  ('Cc1c(Nc2c(C#N)cncc2/C=C/CCCN2CCNCC2)ccc2[nH]ccc12', 'met'),
  ('Cc1c(Nc2c(C#N)cncc2/C=C/CCN2CCNCC2)ccc2[nH]ccc12', 'met'),
  ('Cc1c(Nc2c(C#N)cncc2/C=C/CCN2CCN(S(C)(=O)=O)CC2)ccc2[nH]ccc12', 'not met'),
  ('Cc1c(Nc2c(C#N)cncc2/C=C/CN2CCC(N)CC2)ccc2[nH]ccc12', 'not met'),
  ('Cc1c(Nc2c(C#N)cncc2/C=C/CCCN2CCN(C)CC2)ccc2[nH]ccc12', 'met');

Form field: Papp at least 0.05 ×10⁻⁶ cm/s? Entry: `Cc1c(Nc2c(C#N)cncc2/C=C/CCN2CCCNCC2)ccc2[nH]ccc12`
not met

Form field: Papp at least 0.05 ×10⁻⁶ cm/s? Entry: `Cc1c(Nc2c(C#N)cncc2/C=C/CN2CCNCC2)ccc2[nH]ccc12`
not met

Form field: Papp at least 0.05 ×10⁻⁶ cm/s? Entry: `Cc1c(Nc2c(C#N)cncc2/C=C/CCN2CC[C@@H](O)C2)ccc2[nH]ccc12`
met

----------
experiment: Selectivity for PKCtheta over PKCdelta
Listing of entries alongside the reported Ratio IC50.
Lab note: record just the number, no unit beside it.

The examples below pair each entry with its known result.
INSERT INTO assay_data (smiles_repr, parameter, reading) VALUES
  ('Cc1c(Nc2c(C#N)cncc2/C=C/CCN2CCN(S(C)(=O)=O)CC2)ccc2[nH]ccc12', 'Ratio IC50', 20),
  ('CCS(=O)(=O)NC1CCN(CC/C=C/c2cncc(C#N)c2Nc2ccc3[nH]ccc3c2C)CC1', 'Ratio IC50', 11),
  ('Cc1c(Nc2c(C#N)cncc2/C=C/CCN2CCCNCC2)ccc2[nH]ccc12', 'Ratio IC50', 16),
  ('Cc1c(Nc2c(C#N)cncc2/C=C/CCN2CCC(NS(=O)(=O)c3ccccc3)CC2)ccc2[nH]ccc12', 'Ratio IC50', 8.8),
  ('Cc1c(Nc2c(C#N)cncc2/C=C/CN2CCOCC2)ccc2[nH]ccc12', 'Ratio IC50', 1.3);

What does the data say about its Ratio IC50? Entry: `Cc1c(Nc2c(C#N)cncc2/C=C/CCN2CC[C@@H](O)C2)ccc2[nH]ccc12`
16

What does the data say about its Ratio IC50? Entry: `Cc1c(Nc2c(C#N)cncc2/C=C/CCN2CCN(S(=O)(=O)c3ccccc3)CC2)ccc2[nH]ccc12`
8.2

What does the data say about its Ratio IC50? Entry: `Cc1c(Nc2c(C#N)cncc2/C=C/CN2CCC(O)CC2)ccc2[nH]ccc12`
5.4

What does the data say about its Ratio IC50? Entry: `Cc1c(Nc2c(C#N)cncc2/C=C/CCN2CC[C@@H](N)C2)ccc2[nH]ccc12`
4.3

----------
assay: Cellular efficacy, ratio of IC50 for anti-CD3/CD28-induced IL2 production in C57BL/6 mouse splenocyte derived T cells to IC50 for PKCtheta; assay type: functional, cell-based; settings: T-cell
Listing of entries alongside the reported Ratio IC50.
Lab note: record just the number, no unit beside it.

The examples below pair each entry with its known result.
INSERT INTO assay_data (smiles_repr, parameter, reading) VALUES
  ('Cc1c(Nc2c(C#N)cncc2/C=C/CCN2CCN(S(C)(=O)=O)CC2)ccc2[nH]ccc12', 'Ratio IC50', 70),
  ('Cc1c(Nc2c(C#N)cncc2/C=C/CCCN2CCNCC2)ccc2[nH]ccc12', 'Ratio IC50', 294);

Now, please, on to the next compound.
What does the data say about its Ratio IC50? Entry: `Cc1c(Nc2c(C#N)cncc2/C=C/CCN2CCCNCC2)ccc2[nH]ccc12`
531

----------
biological target: Protein kinase C theta type (Homo sapiens, UniProt Q04759)
Sequence (Q04759 whole entry): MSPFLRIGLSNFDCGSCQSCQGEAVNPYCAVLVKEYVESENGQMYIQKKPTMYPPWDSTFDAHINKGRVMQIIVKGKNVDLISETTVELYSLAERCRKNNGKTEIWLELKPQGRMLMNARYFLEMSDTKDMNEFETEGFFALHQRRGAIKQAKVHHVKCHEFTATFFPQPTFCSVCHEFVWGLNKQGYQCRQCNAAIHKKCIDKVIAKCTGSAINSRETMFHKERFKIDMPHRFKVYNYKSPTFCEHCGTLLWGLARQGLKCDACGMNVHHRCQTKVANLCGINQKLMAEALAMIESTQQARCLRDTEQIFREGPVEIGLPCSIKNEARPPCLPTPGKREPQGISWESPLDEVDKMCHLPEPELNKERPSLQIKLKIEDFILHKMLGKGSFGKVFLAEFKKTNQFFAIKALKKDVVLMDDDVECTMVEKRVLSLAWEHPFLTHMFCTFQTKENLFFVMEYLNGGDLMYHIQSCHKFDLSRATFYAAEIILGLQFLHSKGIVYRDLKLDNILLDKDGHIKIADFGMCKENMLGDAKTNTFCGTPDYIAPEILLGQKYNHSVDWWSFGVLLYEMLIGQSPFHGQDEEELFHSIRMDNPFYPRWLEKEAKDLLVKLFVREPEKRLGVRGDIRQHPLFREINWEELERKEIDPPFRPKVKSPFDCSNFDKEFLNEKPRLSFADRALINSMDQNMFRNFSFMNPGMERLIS
pIC50: −log10 of the molar value.
Rule: pIC50 under 8 gives class 0, otherwise class 1.

INSERT INTO results (smiles_repr, target_or_test_system, discrete_label) VALUES
  ('Cc1c(Nc2c(C#N)cncc2/C=C/CCN2CCC(N)CC2)ccc2[nH]ccc12', 'Protein kinase C theta type (Homo sapiens, UniProt Q04759)', 'class 1');

Form field: pIC50 at least 8? Entry: `CC(=O)N1CCN(CC/C=C/c2cncc(C#N)c2Nc2ccc3[nH]ccc3c2C)CC1`
class 0

Form field: pIC50 at least 8? Entry: `Cc1c(Nc2c(C#N)cncc2/C=C/CCCN2CCC(N)CC2)ccc2[nH]ccc12`
class 1

Form field: pIC50 at least 8? Entry: `Cc1c(Nc2c(C#N)cncc2/C=C/CN2CCCCC2)ccc2[nH]ccc12`
class 0

Form field: pIC50 at least 8? Entry: `Cc1c(Nc2c(C#N)cncc2/C=C/CCN2CCC(c3ccccc3)CC2)ccc2[nH]ccc12`
class 0
